assayTarget: T1, Human CD19-his protein (human, UniProt P15391 20-291)
T1 construct: bought protein; also called human CD19 protein; recombinant human CD19-His; not shown: His tag
T1 sequence (looked up): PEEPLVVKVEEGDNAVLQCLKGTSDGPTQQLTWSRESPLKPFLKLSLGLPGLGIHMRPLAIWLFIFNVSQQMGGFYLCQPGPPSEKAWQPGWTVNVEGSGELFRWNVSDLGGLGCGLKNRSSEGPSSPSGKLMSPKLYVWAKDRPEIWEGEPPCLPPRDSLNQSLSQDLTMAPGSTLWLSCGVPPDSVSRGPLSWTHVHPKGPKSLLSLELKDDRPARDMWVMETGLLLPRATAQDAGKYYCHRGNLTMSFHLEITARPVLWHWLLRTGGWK
method: ELISA on coated human CD19-His
attributeMeasured: EC50 (read off the curve)

binder	recordedMeasurement
F4.41.1 (antibody, human IgG1, V domains shown, human-murine chimeric antibody, human IgG1) VH: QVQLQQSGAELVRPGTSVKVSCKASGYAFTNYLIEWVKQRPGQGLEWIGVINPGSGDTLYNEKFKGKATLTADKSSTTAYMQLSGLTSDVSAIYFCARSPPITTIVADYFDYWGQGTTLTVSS VL: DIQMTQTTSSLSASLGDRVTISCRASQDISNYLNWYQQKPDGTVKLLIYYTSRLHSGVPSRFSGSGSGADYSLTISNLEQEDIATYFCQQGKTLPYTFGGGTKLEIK	~0.5 nM
F2.15.26 (antibody, human IgG1, V domains shown, human-murine chimeric antibody, human IgG1) VH: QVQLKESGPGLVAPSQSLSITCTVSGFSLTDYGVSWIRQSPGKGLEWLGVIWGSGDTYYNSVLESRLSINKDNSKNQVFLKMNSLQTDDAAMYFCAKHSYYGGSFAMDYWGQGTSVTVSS VL: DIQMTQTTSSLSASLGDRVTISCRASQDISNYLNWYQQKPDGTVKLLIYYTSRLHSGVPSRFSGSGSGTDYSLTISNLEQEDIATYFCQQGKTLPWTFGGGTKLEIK	~0.09 nM
F4.152.7 (antibody, human IgG1, V domains shown, human-murine chimeric antibody, human IgG1) VH: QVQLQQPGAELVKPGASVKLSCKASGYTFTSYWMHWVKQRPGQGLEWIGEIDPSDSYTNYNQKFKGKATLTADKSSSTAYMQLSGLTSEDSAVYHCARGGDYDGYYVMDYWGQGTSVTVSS VL: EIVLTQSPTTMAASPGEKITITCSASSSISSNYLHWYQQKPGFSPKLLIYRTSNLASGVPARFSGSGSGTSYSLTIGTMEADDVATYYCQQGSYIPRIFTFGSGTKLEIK	~0.06 nM
F4.82.11 (antibody, human IgG1, V domains shown, human-murine chimeric antibody, human IgG1) VH: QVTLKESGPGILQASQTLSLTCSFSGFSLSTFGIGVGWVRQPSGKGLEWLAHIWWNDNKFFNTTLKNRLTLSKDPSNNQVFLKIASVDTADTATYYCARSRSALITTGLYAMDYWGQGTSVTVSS VL: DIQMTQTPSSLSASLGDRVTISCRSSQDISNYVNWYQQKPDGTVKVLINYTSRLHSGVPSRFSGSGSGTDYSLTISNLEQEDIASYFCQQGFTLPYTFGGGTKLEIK	~0.08 nM
F4.107.12 (antibody, human IgG1, V domains shown, human-murine chimeric antibody, human IgG1) VH: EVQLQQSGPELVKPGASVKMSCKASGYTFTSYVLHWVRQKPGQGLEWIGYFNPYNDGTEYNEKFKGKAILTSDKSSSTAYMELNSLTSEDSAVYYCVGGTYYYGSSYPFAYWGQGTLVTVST VL: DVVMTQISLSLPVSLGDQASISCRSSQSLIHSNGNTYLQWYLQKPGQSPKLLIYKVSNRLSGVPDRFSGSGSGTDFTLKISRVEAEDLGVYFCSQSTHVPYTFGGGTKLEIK	~0.04 nM
